Assay: qHTS assay to identify small molecule agonists of the farnesoid-X-receptor (FXR) signaling pathway - cell viability counter screen (AID 743218); note: nearly all actives have a fitted effect of over 45% in size
Conditions: FXR-bla HEK293T viability, CellTiter-Glo luminescence, 16 h; series mostly up to 62.6 µM
Inconclusive results are not listed. Calls of active or inactive are those of the source. Calls come from the whole dose curve; as a rule, active = well fitted cell-killing curve with a large enough effect in the repeat runs; inconclusive = weak or mixed curves, or effect the other way; inactive = no such curve, though single readings can be large or run the other way.

Smiles: Cc1cccc(C)c1NC(=O)CN1CCCC1
outcome: inactive
--
Smiles: O=[N+]([O-])c1cccc(I)c1
outcome: inactive
--
Smiles: Clc1nc2ccccc2nc1Cl
outcome: inactive
--
Smiles: CC(C)(C)N
outcome: inactive
--
Smiles: CCOc1ccccc1O
outcome: inactive
--
Smiles: CC(C)CCCCCCCOC(=O)c1ccc(C(=O)OCCCCCCCC(C)C)c(C(=O)OCCCCCCCC(C)C)c1
outcome: inactive
--
Smiles: COc1ccc(/C(C)=C/C(=O)O)c(OC)c1
outcome: inactive
